# testedOn: T1, AAV5
# T1 construct: also called adeno-associated virus serotype 5
# testDetails: SPR, AAV on CM5 chip;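 note: surface plasmon resonance with AAV amine-coupled to the chip as ligand, nanobodies injected as analyte over a concentration series, rate constants and affinity fitted from binding curves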
readoutName: Kd (nM)
Numbers only, in nM.

A4-008 (VHH) VHH: VQLQESGGGLVQAGGSLRLSCAASGRAFSINTMGWYRQAPPKQRELVATVTRGGSTNYAGSVKGRFTISRDNAKNTIYLQMNSLRPEDTAVYYCHVDEVRQSSWTTSNIWGQGTQVTVSS = 66
A4-047 (VHH) VHH: VQLQESGGGLVQPGGSLRLSCAASGSRFSINTMGWYRQAPGKQRELVATVTRGGSTNYAGSVKGRFTISRDNAKNTVYLQMNSLRPEDTAVYYCHVDEVRQSSWTTSNLWGQGTQVTVSS = 7.79
A4-014 (VHH) VHH: VQLQESGGGLVQPGGSLRLSCAASGSRFSINSMGWYRQAPGKQRELVATVTRGGNTNYAGSVKGRFTISRDNAKNTVYLQMNSLRPEDTAVYYCHVDEVRESSWTTSNLWGQGTQVTVSS = 597

Here is another binder to look at.
INPUT: Look up Kd for this binder: A4-048 (VHH) VHH: VQLQESGGGLVQPGGSLRLSCAASGSMFSINTMGWYRQAPGKQRELVATVTRGGNTNYAGSVKGRFTISRDNAKNTVYLQMNSLRPEDTAVYYCHVDEVRQSSWTTSNLWGQGTQVTVSS
OUTPUT: 54.4
